Reference source for all entries: ChEMBL document CHEMBL1201862

system: NCI-H460; experiment: NCI tumour cell line growth inhibition, 48 h
Calls of active or inactive are those of the source. No stated cut-off is given here; in the data, active = GI50 up to about 1.1 µM and inactive = higher.
Recorded GI50 for the following molecules

molecule	GI50
CN1CCC(CN2c3ccccc3Sc3ccccc32)CC1	14.7 µM (inactive)
CCOC(=O)C(/C(=N/NC(=O)OC)C(=O)Nc1ccc(C(C)=O)cc1)c1cnc2ccccc2n1 (centres undefined)	> 100 µM (inactive)
CC1OC(O[C@H]2CC[C@]3(C)[C@H]4CC=C5[C@@H]6[C@@H](C)[C@H](C)CC[C@]6(C(=O)OC6OC(CO)C(O)C(O)C6O)CC[C@@]5(C(=O)O)[C@]4(C)CC[C@H]3C2(C)C)C(O)C(O)C1O (some centres undefined)	> 100 µM (inactive)
Cc1cn(Cc2cccc(C3=NCCCN3)c2)c(=O)n(Cc2cccc(C3=NCCCN3)c2)c1=O	> 100 µM (inactive)

====

tested on: A498; test: NCI tumour cell line growth inhibition, 48 h
Calls of active or inactive are those of the source. Rule as the data show it: active = GI50 up to about 1.1 µM and inactive = higher.
measuredParameter: GI50

In [3]: df
Out[3]:
                                   compound   tgt  measuredparameter        endpointresult
0  CN1N=C(c2ccccc2)C(C(c2ccccc2[N+](=O)[O-])C2C(=O)N(C)N=C2c2ccccc2)C1=O (centres undefined)  A498               GI50  > 81.8 µM (inactive)
1  O=[N+]([O-])c1ccc(C2=Nc3ccccc3SC(c3ccccc3)C2)cc1 (centres undefined)  A498               GI50    22.3 µM (inactive)
2       COc1ccc(-c2cc(O)c3nc4ccccc4n3c2)cc1  A498               GI50   > 100 µM (inactive)
3  CC(Oc1ccc(OCC2CCCCC2)cc1)C(=O)NCCO (centres undefined)  A498               GI50      48 µM (inactive)
4  CC(CO)[C@H]1OC(=O)C=C2[C@@]13O[C@@H]3[C@H]1OC(=O)[C@@]3(C)[C@H]4O[C@H]4C[C@@]2(C)[C@@H]13 (some centres undefined)  A498               GI50     4.1 µM (inactive)
5                CCOc1ccc(NC(=O)C(=O)NO)cc1  A498               GI50   > 100 µM (inactive)
6      CN(C)c1ccc(/C=C/C(=O)c2ccc(O)cc2)cc1  A498               GI50    17.1 µM (inactive)
7  C=C1c2[nH]c3ccccc3c2CC(C(=O)O)N1C(O)c1ccc(S(=O)(=O)O)cc1 (centres undefined)  A498               GI50   > 100 µM (inactive)
8  CC1(C)O[C@@H](CBr)C[C@H](C[C@H]2C[C@@H](O)C[C@@H](CCOCc3ccccc3)O2)O1  A498               GI50      23 µM (inactive)

====

tested on: IGROV-1; experiment: NCI tumour cell line growth inhibition, 48 h
Calls of active or inactive are those of the source. Rule as the data show it: active = GI50 up to about 1.1 µM and inactive = higher.
measuredParameter: GI50

                                   compound       endpointresult
0  CSCC(CO)NC(=O)/C=C/c1c(C)[nH]c(=O)[nH]c1=O (stereo not given)  > 875 µM (inactive)
1  CC[C@H]1C[C@@H](O)[C@@H]2[C@H](O)[C@H](O)CN2C1  > 100 µM (inactive)
2  BrC12c3ccccc3Sc3ccccc3C1(Br)c1ccccc12 (stereo not given)     27 µM (inactive)
3  CC(=O)Oc1cc(OC(C)=O)c2c(=O)c3ccccc3n(C)c2c1   14.7 µM (inactive)
4  O=C(O)c1cc2c(cc1CC(Cc1ccccc1)C(=O)O)CCC2 (stereo not given)  > 100 µM (inactive)
5  COc1ccc(/C=C2\CCC(C)(CN(C)C)C2=O)cc1Br (stereo not given)   16.2 µM (inactive)
6  CCCCCCCC(=O)N/N=C/c1ccc(Sc2nccn2C)c([N+](=O)[O-])c1   6.79 µM (inactive)
7  FC(F)(F)c1ccc2c(c1)nc(-c1ccccc1)n2CC1CCCN2CCCCC12 (stereo not given)   18.3 µM (inactive)
8  CCCCCCCCCCCCCCCCCC(=O)NCCCNCCCNC(=O)CCCCCCCCCCCCCCCCC  > 100 µM (inactive)
9  CC(=O)C1=CSC2[C@H](NC(=O)Cc3ccccc3)C(=O)N2C1C(=O)OC(c1ccccc1)c1ccccc1 (stereo not given in full)  > 100 µM (inactive)

====

test system: MDA-MB-231; assay: NCI tumour cell line growth inhibition, 48 h
Calls of active or inactive are those of the source. Cut-off read from the data, not from the text of the source: active = GI50 up to about 1.1 µM and inactive = higher.
measuredParameter: GI50

>>> df
                                   compound       endpointresult
0      O=C(O)c1cc(O)c2c(c1)Cc1cccc(O)c1C2=O   21.5 µM (inactive)
1  CN1N=C(c2ccccc2)C(C(c2ccccc2[N+](=O)[O-])C2C(=O)N(C)N=C2c2ccccc2)C1=O (stereo not given)  > 100 µM (inactive)
2  O=C(Nc1ccccc1C(=O)O)/C(=C/c1ccccc1)NC(=O)c1ccccc1  > 100 µM (inactive)
3  O=C(C/N=C(\CN(c1ccccc1)c1ccccc1)Oc1c(Cl)cc(Cl)cc1Cl)n1cnc2ccccc21     74 µM (inactive)
4           c1ccc2cc3c(NC4=NCCO4)cccc3cc2c1   25.2 µM (inactive)

====

system: HCC 2998; test: NCI tumour cell line growth inhibition, 48 h
Active and inactive are the calls of the source. Rule as the data show it: active = GI50 up to about 1.1 µM and inactive = higher.
measuredParameter: GI50

>>> print(df.to_string())
                                    molecule  measuredparameter       endpointresult
 0  CSCC(CO)NC(=O)/C=C/c1c(C)[nH]c(=O)[nH]c1=O (stereo unspecified)               GI50   85.1 µM (inactive)
 1  Cc1ccc(C2=C(c3ccccc3)C(=O)C(c3ccccc3)=C2c2ccc(C)cc2)cc1               GI50  > 100 µM (inactive)
 2  COC(=O)/C=C(\C)CCC1SC1(C)C (stereo unspecified)               GI50  > 100 µM (inactive)
 3         c1csc(C[N+]23CN4CN(CN(C4)C2)C3)c1               GI50   19.3 µM (inactive)
 4                     O=c1[nH]nc2ccccc2c1Cl               GI50   1.52 µM (inactive)
 5    COc1ccc(/C(Cl)=C(\C=O)c2ccc(OC)cc2)cc1               GI50  > 100 µM (inactive)
 6                CCOc1ccc(NC(=O)C(=O)NO)cc1               GI50  > 100 µM (inactive)
 7  O=C(Nc1ccccc1C(=O)O)/C(=C/c1ccccc1)NC(=O)c1ccccc1               GI50  > 100 µM (inactive)
 8  CCCN(C(=O)c1ccccc1)C(C#N)c1ccc(C(C#N)N(CCC)C(=O)c2ccccc2)cc1 (stereo unspecified)               GI50  > 100 µM (inactive)
 9  Cc1ccc(N2C[N+](c3ccccc3)=NC(c3ccccc3)=N2)cc1               GI50   48.3 µM (inactive)
10  Cc1ccccc1NC(=O)CC(=O)n1nc(-c2ccccc2)c(/N=N/c2ccc([N+](=O)[O-])cc2)c1-c1ccccc1               GI50   17.9 µM (inactive)

====

test system: DMS-273; test: NCI tumour cell line growth inhibition, 48 h
Active and inactive are the calls of the source. No stated cut-off is given here; in the data, active = GI50 up to about 1.1 µM and inactive = higher.
measuredParameter: GI50

>>> df
                                   compound  measuredparameter       endpointresult
0  O=[N+]([O-])c1ccc(C2=Nc3ccccc3SC(c3ccccc3)C2)cc1 (stereo not given)               GI50   13.3 µM (inactive)
1                  NC(=O)n1ncc(Cl)c(Cl)c1=O               GI50  > 100 µM (inactive)
2  Cc1ccccc1NC(=O)CC(=O)n1nc(-c2ccccc2)c(/N=N/c2ccc([N+](=O)[O-])cc2)c1-c1ccccc1               GI50     21 µM (inactive)
3  COC1C2C[C@@H](O)CCC2C(C(=O)OCCl)C[C@H]1O (stereo not given in full)               GI50  > 100 µM (inactive)
4  CC1OC(O)CC(OC(=O)c2ccccc2)C1OC(=O)c1ccccc1 (stereo not given)               GI50   14.5 µM (inactive)

====

Recorded GI50 for the following molecules
test system: TK-10; test: NCI tumour cell line growth inhibition, 48 h
Active and inactive are the calls of the source. Cut-off read from the data, not from the text of the source: active = GI50 up to about 1.1 µM and inactive = higher.
measuredParameter: GI50

                                   molecule       endpointresult
0  Oc1ccccc1/C=N/Nc1nc(N/N=C/c2ccccc2O)nc(N/N=C/c2ccccc2O)n1  > 100 µM (inactive)
1  COc1ccc(C2CCc3c(cnc4nc(N)nc(N)c34)C2)cc1 (stereo not drawn)   12.8 µM (inactive)
2  O=C(N/N=C\c1cccc2ccccc12)Nc1ccc([N+](=O)[O-])cc1   4.94 µM (inactive)
3  CC(=O)NNc1nc(C)c(C(/C=C/c2ccc(Cl)cc2)=N/NC(=S)NN)s1  > 100 µM (inactive)
4                     OCCCCn1cnc2c(O)ncnc21  > 100 µM (inactive)
5  Cc1c(Cl)ccc2c1NC(=O)C2(O)C1Cc2ccccc2C1=O (stereo not drawn)  > 100 µM (inactive)
6  CCOC(=O)Cn1c(=O)n(C)c(=O)c2c1ncn2Cc1ccccc1  > 100 µM (inactive)
7  CC(=O)C1=CSC2[C@H](NC(=O)Cc3ccccc3)C(=O)N2C1C(=O)OC(c1ccccc1)c1ccccc1 (stereo partly drawn)  > 100 µM (inactive)
